B1: library; a variant is named by its letters at N, in order (parent)
chain: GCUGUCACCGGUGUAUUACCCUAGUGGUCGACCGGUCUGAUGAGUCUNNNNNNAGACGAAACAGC

# Variants of: B1
# METHOD DESCRIPTION: normalized RNA/DNA level without ligand (relative to sTRSVctl = 100) (log10 (% of sTRSVctl)); ligand: hypoxanthine (xanthine aptamer); higher = less ribozyme self-cleavage, higher mRNA level
# SETTINGS: HEK293T, reporter: mCherry (pCS4076), ligand present: no
READOUT KIND: normalized RNA/DNA level without ligand (log10)
Number, no unit, nothing else.

Lookup: Reported normalized RNA/DNA level without ligand (log10), variant `AAUGAU` : ____
Found: 1.68

Lookup: What about this variant? `UUUUUG`
Found: 1.83

Lookup: What about this variant? `GAUAGU`
Found: 1.72

Lookup: What about this variant? `AUUUGG`
Found: 1.39

Lookup: What about this variant? `AACGAA`
Found: 1.67

Lookup: What about this variant? `CGUGAU`
Found: 1.73

Lookup: What about this variant? `CACUCG`
Found: 1.92

Lookup: What about this variant? `UAAGUU`
Found: 1.83

Lookup: What about this variant? `CUUGCU`
Found: 1.94

The reported numbers originate from the supplement of paper PMC6757056.
